target: human cloned 5-HT6 receptors (Homo sapiens); construct: expressed in transfected cells; host or cells: HeLa cells; assay type: binding; settings: test compound dose 1000 nM; displacement of [3H]-LSD
PARAMETER: % Inhibition (%)
Provide only the numeric value, understood in %.

CC(=NNC(=N)N)c1c(-c2ccccc2)n(CCc2ccccc2)c2ccccc12 [Example 78] = 84.2
CCn1c(-c2ccc(Cl)cc2)c(C=NN(C)C2=NCCN2)c2ccccc21 [Example 104] = 100.0
CN(N=Cc1c(-c2ccc(Cl)cc2)n(Cc2ccccc2)c2ccccc12)C1=NCCN1 [Example 95] = 20.0

Kindly review the next compound as well.
Query: Answer with the recorded % Inhibition for the compound listed here: CN(N=Cc1c(-c2ccc(Cl)cc2)n(Cc2ccccc2Cl)c2ccccc12)C1=NCCN1 [Example 97]
Reply: 0.4

###

target: human cloned 5-HT6 receptors (Homo sapiens, UniProt P50406); construct: expressed in transfected cells; host or cells: HeLa cells; type: binding; details: test compound dose 1000 nM; displacement of [3H]-LSD
Sequence (P50406 whole entry): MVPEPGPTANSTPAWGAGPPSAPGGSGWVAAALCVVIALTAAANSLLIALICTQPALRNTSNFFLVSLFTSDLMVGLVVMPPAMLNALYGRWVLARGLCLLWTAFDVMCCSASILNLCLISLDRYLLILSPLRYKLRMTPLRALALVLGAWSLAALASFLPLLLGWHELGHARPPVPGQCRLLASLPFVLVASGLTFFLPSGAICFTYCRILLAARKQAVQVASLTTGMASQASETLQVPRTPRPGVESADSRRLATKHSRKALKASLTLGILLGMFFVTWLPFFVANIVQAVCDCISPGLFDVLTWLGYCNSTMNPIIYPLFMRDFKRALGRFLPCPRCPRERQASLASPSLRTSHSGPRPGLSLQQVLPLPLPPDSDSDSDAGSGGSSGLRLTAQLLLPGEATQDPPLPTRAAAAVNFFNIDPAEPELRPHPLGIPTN
PARAMETER: inhibition at 1 µM (%)
Provide only the numeric value, understood in %.

Query: Answer with the recorded inhibition at 1 µM for the molecule listed here: N=C(N)NN=Cc1c(-c2ccc(Cl)cc2)n(Cc2ccccc2)c2ccccc12 [Example 94]
Reply: 19.7

###

The entries below come with measured inhibition at 0.1 µM values attached.
molecular target: human cloned 5-HT6 receptors (Homo sapiens, UniProt P50406); construct: expressed in transfected cells; host or cells: HeLa cells; type: binding; details: test compound dose 100 nM; displacement of [3H]-LSD; read-out: % Inhibition
Quick note: number first, unit second.

C/C(=N\NC(=N)N)c1c(-c2sccc2C)[nH]c2ccccc12 = 63.2%

Query: Answer with the recorded inhibition at 0.1 µM for the compound listed here: Cc1ccc2[nH]c3c(c2c1)C(=NN(C)C1=NCCN1)CCC3
Reply: 24.2%

Query: Answer with the recorded inhibition at 0.1 µM for the compound listed here: CC1(C)CC(=NNC(=N)N)c2c([nH]c3ccc(Cl)cc23)C1
Reply: 30.7%

Query: Answer with the recorded inhibition at 0.1 µM for the compound listed here: Cc1ccc2[nH]c3c(c2c1)C(=NNC(=N)N)CC(c1ccccc1)C3 (stereo not drawn)
Reply: 27.6%

Query: Answer with the recorded inhibition at 0.1 µM for the compound listed here: N=C(N)NN=C1CC(c2ccccc2)Cc2[nH]c3ccc(Cl)cc3c21 (stereo not drawn)
Reply: 24.6%

Query: Answer with the recorded inhibition at 0.1 µM for the compound listed here: N=C(NN=C1CCCc2[nH]c3ccc(Cl)cc3c21)NC1CCCC1
Reply: 55.3%

Query: Answer with the recorded inhibition at 0.1 µM for the compound listed here: CC(C)c1ccc2[nH]c3c(c2c1)C(=NN(C)C1=NCCN1)CC(c1ccccc1)C3 (stereo not drawn)
Reply: 25.6%

Query: Answer with the recorded inhibition at 0.1 µM for the compound listed here: Cc1ccc2[nH]c3c(c2c1)C(=NN(C)C1=NCCN1)CC(c1ccccc1)C3 (stereo not drawn)
Reply: 18.6%

Query: Answer with the recorded inhibition at 0.1 µM for the compound listed here: CC1(C)CC(=NNC(=N)N)c2c([nH]c3ccc(F)cc23)C1
Reply: 26.7%

###

The entries below come with measured % Inhibition values attached.
Target: human cloned 5-HT6 receptors (Homo sapiens)
Construct: expressed in transfected cells; host or cells: HeLa cells
Type: binding
Conditions: test compound dose 1000 nM; displacement of [3H]-LSD
Experimental: This operation is repeated. The reaction is allowed to proceed in the dark for 120 min at room temperature, at which time, the bound ligand-receptor complex is filtered off on a 96 well unifilter with a Packard Filtermate® 196 Harvester. The bound complex caught on the filter disk is allowed to air dry and the radioactivity is measured in a Packard TopCount® equipped with six photomultiplier detectors, after the addition of 40.0 μl Microscint®-20 scintillant to each shallow well. […]

Look over these answered cases.
CC(C)C(=NNC(=N)N)c1c(-c2ccc(Cl)cc2)[nH]c2ccccc12 [Example 57] = 74.6%
CN(N=Cc1c(-c2ccc(Cl)cc2)n(CCC#N)c2ccccc12)C1=NCCN1 [Example 109] = 99.1%
N=C(N)NN=Cc1c(-c2ccc(Cl)cc2)n(CCc2ccccc2)c2ccccc12 [Example 110] = 20.9%
COc1ccc2[nH]c3c(c2c1)C(=NNC(=N)N)CCC3 [Example 162] = 98%

Kindly review the next compound as well.
Query: Given CN(N=Cc1c(-c2ccc(Cl)cc2)n(CCc2ccccc2)c2ccccc12)C1=NCCN1 [Example 111] , report its % Inhibition on human cloned 5-HT6 receptors (Homo sapiens).
Reply: 37.5%

Source of measurements: patent US6951881B2
